# System: Acinetobacter baumannii C279
# Assay name: MIC on clinically isolated bacteria
# Assay type: cell-based
# Condition: Acinetobacter baumannii C279; read-out: Minimum Inhibitory Concentration (MIC)
Readout label: MIC (µg/mL)

Previously resolved entries follow.
| Compound | Unit abbrev | MIC |
| --- | --- | --- |
| CC1(C)[C@H](NC(=O)/C(=N\O[C@@H](COc2ccc3c(c2)CN(/C(=N\[C@@H]2CCCNC2)N[C@@H]2CCCNC2)C3)C(=O)O)c2csc(N)n2)C(=O)N1OS(=O)(=O)O [Compound 46] | µg/mL | 4 |
| C[C@H]1[C@H](NC(=O)/C(=N\OC(C)(C)C(=O)O)c2csc(N)n2)C(=O)N1S(=O)(=O)O [Aztreonam, reference compound] | µg/mL | 64 |
| CC1(C)[C@H](NC(=O)/C(=N\O[C@@H](COc2ccc3c(c2)CN(C(=N)NCCCCN)C3)C(=O)O)c2csc(N)n2)C(=O)N1OS(=O)(=O)O [Compound 36] | µg/mL | 2 |
| CC1(C)[C@H](NC(=O)/C(=N\O[C@@H](COc2ccc3c(c2)CN(C(=N)NOCCN)C3)C(=O)O)c2csc(N)n2)C(=O)N1OS(=O)(=O)O [Compound 43] | µg/mL | 8 |
| CC1(C)[C@H](NC(=O)/C(=N\O[C@@H](COc2ccc3c(c2)CN(C(=N)N(CCN)CCN)C3)C(=O)O)c2csc(N)n2)C(=O)N1OS(=O)(=O)O [Compound 45] | µg/mL | 16 |
| C[C@@H](O)[C@H]1C(=O)N2C(C(=O)O)=C(S[C@@H]3CN[C@H](C(=O)N(C)C)C3)[C@H](C)[C@H]12 [Meropenem, reference compound] | µg/mL | 64 |

I. CC1(C)[C@H](NC(=O)/C(=N\O[C@@H](COc2ccc3c(c2)CN(C(=N)NCCN)C3)C(=O)O)c2csc(N)n2)C(=O)N1OS(=O)(=O)O [Compound 44]
II. CC1(C)[C@H](NC(=O)/C(=N\O[C@@H](COc2ccc3c(c2)CN(C(=N)N[C@@H]2CCCNC2)C3)C(=O)O)c2csc(N)n2)C(=O)N1OS(=O)(=O)O [Compound 41]
Request: Given the two records I and II , choose the one whose MIC value is lower. Pick one and reply with its label.
Result: I

---

# Test system: Pseudomonas aeruginosa W19
# Assay name: MIC on clinically isolated bacteria
# Type: cell-based
# Condition: read-out: MIC
Readout label: MIC (µg/mL)

| Compound | Unit abbrev | MIC |
| --- | --- | --- |
| C[C@H]1[C@H](NC(=O)/C(=N\OC(C)(C)C(=O)O)c2csc(N)n2)C(=O)N1S(=O)(=O)O [Aztreonam, reference compound] | µg/mL | 16 |

a. CC1(C)[C@H](NC(=O)/C(=N\O[C@@H](COc2ccc3c(c2)CN(C(=N)N(CCN)CCN)C3)C(=O)O)c2csc(N)n2)C(=O)N1OS(=O)(=O)O [Compound 45]
b. CC1(C)[C@H](NC(=O)/C(=N\O[C@@H](COc2ccc3c(c2)CN(C(=N)N[C@@H]2CCCNC2)C3)C(=O)O)c2csc(N)n2)C(=O)N1OS(=O)(=O)O [Compound 41]
Request: Between a and b , which one shows the larger MIC value? Indicate your choice by writing its label.
Result: a
(a: 8 µg/mL, b: 1 µg/mL)
